Numbers sourced from patent US20190241648A1.

Molecular target: human ApoC3 (huApoC3), native protein purified from human serum (human, UniProt P02656 21-99); note: test concentration or dose not given here
Sequence (P02656 21-99): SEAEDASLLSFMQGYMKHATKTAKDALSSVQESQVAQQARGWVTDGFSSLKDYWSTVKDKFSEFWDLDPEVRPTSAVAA
Assay: cell-based or functional assay
Task for the reader: assign each of the following binders its reported attenuation of the ability of ApoC3 to inhibit VLDL uptake by HepG2 cells.

# per-item lookup of attenuation of the ability of ApoC3 to inhibit VLDL uptake by HepG2 cells; items listed below
1. 8B4 scFv-Fc (Fc fusion) VH: ELQLVESGGGLVQPGGSLRLSCAASGFTFSNAYLYWVRQVPGKGLEWVSGINPAGDGRAYATSVKGRFTISRDNAKNTLYLQMNTLESDDTAVYYCATASRVVAYDSWGQGTQVTVSS VL: EIVLTQSPSSVTASVGEKVTINCKSSQSVESGSDQKSYLNWYQQRPGQSPRLLIYYASTQESGIPDRFSGSGSTTDFTLTISSVQPEDAAVYYCQQAYSAPFTFGQGTKVELK
2. 5E5 scFv-Fc (Fc fusion, scFv-Fc format) VH: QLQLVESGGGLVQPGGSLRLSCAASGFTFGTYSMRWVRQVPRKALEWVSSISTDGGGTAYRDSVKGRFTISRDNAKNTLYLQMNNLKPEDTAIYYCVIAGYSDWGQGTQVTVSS VL: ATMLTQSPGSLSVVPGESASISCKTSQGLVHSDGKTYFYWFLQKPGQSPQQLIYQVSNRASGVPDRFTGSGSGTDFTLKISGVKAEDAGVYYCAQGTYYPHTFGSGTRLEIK
3. 8A4 scFv-Fc (Fc fusion, scFv-Fc format) VH: QVQLVESGGGLVQPGGSLKVSCTASGFTFNNYAMRWVRQAEGKGLEWVSSIDSGGDRTKYGDSVKGRFSISRDNAKNTVYLQMDALKPEDTGVYYCVSQGYIFWGQGAQVTVSS VL: ATMLTQSPGSLSVVPGESASISCKASQSLVHSDGKTYLYWLLQKPGQRPQLLIYQVSNHESGVPDRFTGSGSGTDYTLKISGVKAEDAGVYYCAQATYYPLTFGQGTKVELK

~60%
~100%
~40%
